- assayedSystem: PI3-kinase p110-alpha/p85-alpha (Homo sapiens)
- Sequence (P27986 whole entry): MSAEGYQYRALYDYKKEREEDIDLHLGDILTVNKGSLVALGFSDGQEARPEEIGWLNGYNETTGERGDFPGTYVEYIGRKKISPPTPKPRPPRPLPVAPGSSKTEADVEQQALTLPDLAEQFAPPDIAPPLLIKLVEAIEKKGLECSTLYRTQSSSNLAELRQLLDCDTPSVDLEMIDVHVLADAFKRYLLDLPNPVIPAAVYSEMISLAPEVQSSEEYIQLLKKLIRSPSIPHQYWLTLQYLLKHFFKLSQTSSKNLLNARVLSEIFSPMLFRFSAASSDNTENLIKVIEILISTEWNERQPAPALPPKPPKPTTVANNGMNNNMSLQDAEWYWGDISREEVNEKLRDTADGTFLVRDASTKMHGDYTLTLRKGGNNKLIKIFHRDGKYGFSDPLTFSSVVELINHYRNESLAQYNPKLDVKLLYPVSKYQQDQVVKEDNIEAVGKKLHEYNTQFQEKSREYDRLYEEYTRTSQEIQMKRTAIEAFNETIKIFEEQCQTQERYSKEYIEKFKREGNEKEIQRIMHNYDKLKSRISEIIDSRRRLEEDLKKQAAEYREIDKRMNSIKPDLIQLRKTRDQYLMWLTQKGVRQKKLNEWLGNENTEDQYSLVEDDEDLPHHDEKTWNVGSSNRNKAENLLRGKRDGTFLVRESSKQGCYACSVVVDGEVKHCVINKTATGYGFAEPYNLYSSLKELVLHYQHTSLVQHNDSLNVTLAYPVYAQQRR
- Sequence (P42336 whole entry): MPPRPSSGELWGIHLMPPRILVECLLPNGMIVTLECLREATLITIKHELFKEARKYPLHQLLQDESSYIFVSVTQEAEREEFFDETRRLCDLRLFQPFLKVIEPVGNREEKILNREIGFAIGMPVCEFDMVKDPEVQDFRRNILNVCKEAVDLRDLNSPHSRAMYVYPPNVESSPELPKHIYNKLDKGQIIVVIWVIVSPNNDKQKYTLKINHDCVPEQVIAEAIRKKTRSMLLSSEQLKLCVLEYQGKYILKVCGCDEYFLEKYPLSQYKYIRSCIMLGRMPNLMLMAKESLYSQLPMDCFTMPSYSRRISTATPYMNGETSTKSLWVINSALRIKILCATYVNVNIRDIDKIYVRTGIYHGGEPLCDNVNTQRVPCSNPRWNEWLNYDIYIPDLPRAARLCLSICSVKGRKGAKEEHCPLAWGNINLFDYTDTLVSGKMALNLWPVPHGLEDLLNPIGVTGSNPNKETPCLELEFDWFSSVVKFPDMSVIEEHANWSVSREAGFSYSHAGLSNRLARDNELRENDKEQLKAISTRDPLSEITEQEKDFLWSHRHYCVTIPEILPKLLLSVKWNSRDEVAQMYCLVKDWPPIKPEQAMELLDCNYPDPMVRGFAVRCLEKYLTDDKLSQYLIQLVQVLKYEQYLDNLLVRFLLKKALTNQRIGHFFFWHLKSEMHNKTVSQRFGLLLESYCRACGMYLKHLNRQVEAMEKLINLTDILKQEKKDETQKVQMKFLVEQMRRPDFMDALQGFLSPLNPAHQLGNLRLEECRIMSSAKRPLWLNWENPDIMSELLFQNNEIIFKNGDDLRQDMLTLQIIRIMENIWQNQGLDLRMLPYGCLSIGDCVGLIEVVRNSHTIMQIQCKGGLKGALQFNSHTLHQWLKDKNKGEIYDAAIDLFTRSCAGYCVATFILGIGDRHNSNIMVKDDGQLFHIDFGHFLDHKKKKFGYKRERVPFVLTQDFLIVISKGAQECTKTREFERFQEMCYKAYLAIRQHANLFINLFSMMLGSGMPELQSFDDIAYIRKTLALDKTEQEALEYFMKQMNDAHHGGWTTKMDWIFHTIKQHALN
- protocolNotes: null: The kinase activity was measured by using the commercial ADP Hunter Plus assay available from DiscoveRx (#33-016), which is a homogeneous assay to measure the accumulation of ADP, a universal product of kinase activity. […] The reaction was carried out for 1 hour at 25° C. Reagent A and B were sequentially added to the wells and plates were incubated for 30 min at 37° C. Fluorescence counts were read in a Victor instrument (Perkin Elmer) with the recommended settings (544 and 580 nm as excitation and emission wavelengths, respectively).
- Format: protein-complex assay
# YES = IC50 below 10 µM (exclusive); NO = IC50 at/above 10 µM

Below are worked cases with known answers.
CNc1nc2ccccc2n1-c1nc2c(c(C(C)(C)O)n1)OCC1COCCN21 (configuration not stated) :: YES
CCCNc1nc2ccccc2n1-c1nc2c(c(C(C)(C)S(C)(=O)=O)n1)OC[C@@H]1COCCN21 :: YES
CC(C)(c1nc(-c2ccnc3[nH]ccc23)nc2c1OCC1COCCN21)S(C)(=O)=O (configuration not stated) :: YES
CS(=O)(=O)Cc1nc(-c2cccc3[nH]ccc23)nc2c1OCC1COCCN21 (configuration not stated) :: YES
CS(=O)(=O)C1(c2nc(-c3cccc4[nH]ccc34)nc3c2OC[C@H]2COCCN32)CCOCC1 :: NO

IN: Please let me know if COc1cc(-c2nc3c(c(C4(S(C)(=O)=O)CCOCC4)n2)OCC2COCCN32)c2cc[nH]c2c1 (configuration not stated) shows IC50 below 10 µM.
OUT: YES

IN: # repeat for CNc1nc2ccccc2n1-c1nc2c(c(C(C)(C)S(C)(=O)=O)n1)OCC1COCCN21 (configuration not stated)
OUT: YES

IN: # repeat for CNc1nc2ccccc2n1-c1nc2c(c(C3(S(C)(=O)=O)CCOCC3)n1)OCCC1COCCN21 (configuration not stated)
OUT: NO

IN: # repeat for CNc1nc2ccc(Cl)cc2n1-c1nc2c(c(C3(S(C)(=O)=O)CCC3)n1)OC[C@@H]1COCCN21
OUT: NO

IN: # repeat for COc1cc(-c2nc3c(c(C4([S@TB1](C)(=O)=O)CCOCC4)n2)OCCC2COCCN32)c2cc[nH]c2c1 (configuration not stated)
OUT: NO

IN: # repeat for CS(=O)(=O)c1cccc(-c2nc(-c3cccc4[nH]ccc34)nc3c2OCC2COCCN32)c1 (configuration not stated)
OUT: NO

IN: # repeat for O=S(=O)(Cc1nc(-c2cccc3[nH]ccc23)nc2c1OCC1COCCN21)C(F)(F)F (configuration not stated)
OUT: NO
